target: Estrogen receptor (Homo sapiens, UniProt P03372); assay: Antagonist activity at ERalpha in human MCF7 cells assessed as reduction in PGR gene expression incubated for 24 hrs by qPCR analysis
Sequence (P03372 whole entry): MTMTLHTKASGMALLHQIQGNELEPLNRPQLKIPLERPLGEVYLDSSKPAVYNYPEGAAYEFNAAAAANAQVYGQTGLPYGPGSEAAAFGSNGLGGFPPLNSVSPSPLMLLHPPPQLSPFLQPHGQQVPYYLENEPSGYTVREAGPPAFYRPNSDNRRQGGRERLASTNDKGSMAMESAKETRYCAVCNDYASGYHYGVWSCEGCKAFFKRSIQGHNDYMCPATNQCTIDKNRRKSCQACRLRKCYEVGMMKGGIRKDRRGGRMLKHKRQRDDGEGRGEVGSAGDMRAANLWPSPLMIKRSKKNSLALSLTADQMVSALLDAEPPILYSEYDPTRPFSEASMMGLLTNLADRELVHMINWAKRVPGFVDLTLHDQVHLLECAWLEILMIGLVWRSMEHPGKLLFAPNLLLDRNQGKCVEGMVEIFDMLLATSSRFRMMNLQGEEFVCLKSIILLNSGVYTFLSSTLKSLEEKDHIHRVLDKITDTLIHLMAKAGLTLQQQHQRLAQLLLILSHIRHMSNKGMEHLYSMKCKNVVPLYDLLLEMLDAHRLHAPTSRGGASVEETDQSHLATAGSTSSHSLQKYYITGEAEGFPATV
Experimental readout: EC50 (nM)
Numbers only here, please. The scale is nM.

EC50 for Cc1ncsc1-c1ccc([C@@H](C)NC(=O)[C@@H]2C[C@@H](O)CN2C(=O)[C@H](NC(=O)COCCOCc2cn(CCOc3ccc(N(Cc4cccc(O)c4Cl)CC4(c5ccccc5F)CCCC4)cc3)nn2)C(C)(C)C)cc1 ? 27

* * *

biological target: Estrogen receptor (Homo sapiens, UniProt P03372, S463P); assay: Binding affinity to ERalpha S463P mutant (unknown origin) expressed in Escherichia coli preincubated for 15 mins followed by ligand addition and measured after 1 hr by fluorescent polarization assay
Sequence (P03372 whole entry S463P): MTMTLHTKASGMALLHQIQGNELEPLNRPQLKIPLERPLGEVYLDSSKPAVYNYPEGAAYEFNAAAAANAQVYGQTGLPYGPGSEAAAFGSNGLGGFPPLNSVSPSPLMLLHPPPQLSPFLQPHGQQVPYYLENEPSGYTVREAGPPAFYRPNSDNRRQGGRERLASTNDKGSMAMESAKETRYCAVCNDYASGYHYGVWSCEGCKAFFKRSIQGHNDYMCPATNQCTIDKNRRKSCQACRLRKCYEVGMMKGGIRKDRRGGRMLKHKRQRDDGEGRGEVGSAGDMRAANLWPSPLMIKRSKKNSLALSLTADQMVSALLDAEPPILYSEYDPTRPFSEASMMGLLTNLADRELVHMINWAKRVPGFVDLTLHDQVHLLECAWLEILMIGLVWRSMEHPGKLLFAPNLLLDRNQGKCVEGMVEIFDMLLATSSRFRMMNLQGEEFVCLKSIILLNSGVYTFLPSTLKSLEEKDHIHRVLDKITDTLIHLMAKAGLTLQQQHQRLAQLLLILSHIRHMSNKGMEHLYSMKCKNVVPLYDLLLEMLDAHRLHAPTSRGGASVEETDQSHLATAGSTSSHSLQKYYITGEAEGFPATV
Experimental readout: pIC50
On this scale, pIC50 is minus log10 of a concentration expressed in M (mol/L).

# input molecule: Cc1ncsc1-c1ccc([C@H](C)NC(=O)[C@@H]2C[C@@H](O)CN2C(=O)[C@H](NC(=O)COCc2cn(CCOc3ccc(N(Cc4cccc(O)c4Cl)CC4(c5ccccc5F)CCCC4)cc3)nn2)C(C)(C)C)cc1 ; wanted: its pIC50 6.77

Next molecule: Cc1ncsc1-c1ccc([C@H](C)NC(=O)[C@@H]2C[C@@H](O)CN2C(=O)[C@@H](NC(=O)COCCOCCOCc2cn(CCOc3ccc(Cn4c(-c5ccc(O)cc5)c(C)c5cc(O)ccc54)cc3)nn2)C(C)(C)C)cc1 8.22

And what about the molecule Cc1c(-c2ccc(O)cc2)n(Cc2ccc(OCCn3cc(COCCOc4cccc5c4C(=O)N(C4CCC(=O)NC4=O)C5=O)nn3)cc2)c2ccc(O)cc12 (centres undefined) ? 8.68

Another molecule to check: CN(Cc1cccc(O)c1Cl)C(C1CCCC1)C(F)(F)F (centres undefined) 6.96
